- Tested on: EKVX NSCLC
- test_protocol: NCI tumour cell line growth inhibition, 48 h
parameter: TGI

O=C1CSC(c2cccc(Cl)c2)N1c1ccc(-n2c(-c3ccccc3)nc3ccccc3c2=O)cc1 (stereo not drawn)
> 100 µM
O=C(NC1CCCCC1)OCc1c(COC(=O)NC2CCCCC2)c(-c2ccc(Cl)c(Cl)c2)n2c1CCC2
94.4 µM
Cc1ccc(C(=O)CC(O)(C(F)(F)F)C(F)(F)F)cc1[N+](=O)[O-]
31.7 µM
Cc1n[nH]c(=S)n1/N=C/c1ccc(-c2ccc(Cl)cc2)o1
> 100 µM

Field: TGI. Fill in for each record below.
1. C=CCN(N=O)C(=O)NCCCC(NC(C)=O)C(=O)NCc1ccccc1 (stereo not drawn)
2. CCOC(=O)CO/N=C\C1=CC(=O)C2CC1C2(C)C (stereo not drawn)
3. S=c1oc(CCCCCCCCc2nn(CNc3ccccc3)c(=S)o2)nn1CNc1ccccc1
4. CC(=O)Nc1c(Br)cc2c(c1Br)Cc1cc(Br)ccc1-2

Reply:
1. > 100 µM
2. > 100 µM
3. > 100 µM
4. 13.8 µM
